GI50 values by entry
- Tested on: MOLT-4
- assay overview: NCI tumour cell line growth inhibition, 48 h
Active and inactive are the calls of the source. Cut-off read from the data, not from the text of the source: active = GI50 up to about 1.1 µM and inactive = higher.
endpoint label: GI50

- compound: "CC(NC(=O)NC(C)(C)C)NC(=O)C(N)CC(=O)O (stereo not given)"
  endpoint label: "GI50"
  reported measurement: "> 100 µM (inactive)"
- compound: "Cc1cc(CS(=O)(=O)/C=C/c2ccccc2[N+](=O)[O-])c(CS(=O)(=O)/C=C/c2ccccc2[N+](=O)[O-])cc1C"
  endpoint label: "GI50"
  reported measurement: "70.1 µM (inactive)"
- compound: "CC(=O)OCC1OC(Nc2nc(O)n(C)c(=O)c2-c2csc(N)n2)C(OC(C)=O)C(OC(C)=O)C1OC(C)=O (stereo not given)"
  endpoint label: "GI50"
  reported measurement: "> 100 µM (inactive)"
- compound: "CCOC(=O)c1cc(C2CCN(Cc3ccccc3)C2=O)c(C(=O)/C=C(/C)N)[nH]1 (stereo not given)"
  endpoint label: "GI50"
  reported measurement: "> 100 µM (inactive)"
- compound: "C=CCC1(O)CC(n2cc(C)c(=O)[nH]c2=O)OC1CO[Si](C)(C)C(C)(C)C (stereo not given)"
  endpoint label: "GI50"
  reported measurement: "57.3 µM (inactive)"
- compound: "CCOC(=O)CCC(C(=O)OCC)n1nnc2ccc(Nc3c(C)[n+]([O-])c4cc(F)c(OCC)cc4[n+]3[O-])cc21 (stereo not given)"
  endpoint label: "GI50"
  reported measurement: "44.7 µM (inactive)"
- compound: "COc1cc(O)c(C(=O)C2Cc3ccccc32)c(OC)c1 (stereo not given)"
  endpoint label: "GI50"
  reported measurement: "16.9 µM (inactive)"
- compound: "COc1ccc(C(=O)c2c(C(C(=O)c3ccc(OC)cc3)C(=O)c3ccc(OC)cc3)n(C(=O)c3ccc(OC)cc3)c3ccccc23)cc1"
  endpoint label: "GI50"
  reported measurement: "> 100 µM (inactive)"
- compound: "COc1c(C)c(C/C=C(\\C)CCCCO[Si](c2ccccc2)(c2ccccc2)C(C)(C)C)c(OC)c(OC)c1OC"
  endpoint label: "GI50"
  reported measurement: "> 46.5 µM (inactive)"
- compound: "CC(C)OP(=O)(OC(C)C)C(Nc1cccc(C(F)(F)F)c1)c1ccccc1 (stereo not given)"
  endpoint label: "GI50"
  reported measurement: "13.7 µM (inactive)"
- compound: "Cc1ccc(NC(=O)C2C(=O)N(c3ccc(C)c(C)c3)C(=O)C2N=N)cc1C (stereo not given)"
  endpoint label: "GI50"
  reported measurement: "> 100 µM (inactive)"
- compound: "Cc1nc(Nc2ccc(Cl)cc2)sc1C(=O)NNc1ccc([N+](=O)[O-])cc1[N+](=O)[O-]"
  endpoint label: "GI50"
  reported measurement: "15 µM (inactive)"
- compound: "O=C1NC(N2CCOCC2)=N/C1=C\\c1ccccc1"
  endpoint label: "GI50"
  reported measurement: "> 100 µM (inactive)"
- compound: "CC1(C)[C@@H]2C[C@H]1C(Cc1cccc(C[C@H]3c4cc(-c5ccccn5)ncc4[C@H]4C[C@@H]3C4(C)C)c1)c1cc(-c3ccccn3)ncc12 (stereo not given in full)"
  endpoint label: "GI50"
  reported measurement: "0.312 µM (active)"
- compound: "C=C(C)C(=O)O[C@@H]1C/C(C)=C\\[C@H](OC(C)=O)C[C@](C)(O)/C=C2/OC(=O)C(COC(C)=O)=C21"
  endpoint label: "GI50"
  reported measurement: "0.428 µM (active)"
